src = PubChem BioAssay AID540252

target: glucose-6-phosphate dehydrogenase-6-phosphogluconolactonase (Plasmodium falciparum 3D7); experiment: inhibition of P. falciparum G6PD activity – biochemical, end-point NADPH detection, orthogonal assay, dose response (AID 540252); details: purified PfG6PD enzyme, NADPH direct detection
The source made the active and inactive calls. No rule for the calls is given here.
Use one of these outcomes when replying: active, inactive

Solved entries:
* N#Cc1ccc2sn(-c3ccccc3)c(=O)c2c1 | active
* N#CC(C#N)=C1C=CC=CN1/C(=C\c1ccccc1Cl)C(=O)c1ccccc1 | inactive
* CC(C)Cn1c([N+](=O)[O-])nc2c1c(=O)[nH]c(=O)n2C | inactive
* CN(C)C=Nc1ccc2nc3c(cc2c1)[nH]c1ccccc13 | inactive
* O=C1CCC[C@@H]2[C@@H](Cc3ccccc3)[C@H](N3CCN(c4ccccc4)CC3)C[C@@H]3CCN1[C@@H]32 | inactive

Check the results log: what was the call for COc1cc(SSc2cc(OC)cc([N+](=O)[O-])c2N)c(N)c([N+](=O)[O-])c1 ?
active

Check the results log: what was the call for O=C(CSc1nc2ccc(Cl)cc2[nH]1)NC1CCCc2ccccc21 (stereo not given) ?
inactive

* * *

target: glucose-6-phosphate dehydrogenase-6-phosphogluconolactonase (Plasmodium falciparum 3D7); experiment: inhibition of P. falciparum G6PD activity – biochemical, end-point NADPH detection, orthogonal assay, dose response (AID 540252); settings: purified PfG6PD enzyme, NADPH direct detection
The source made the active and inactive calls. The rule behind the calls is not given here.
Use one of these outcomes when replying: active, inactive

* Cc1ccc(-n2sc3cc(F)ccc3c2=O)c(C)c1 | active
* Cc1ccccc1-n1c(-c2ccc3ccccc3n2)n[nH]c1=S | inactive
* [O-]/[N+](=C\c1ccco1)c1ccc(Cl)cc1 | inactive
* Cc1cccc(OCC(=O)NCC(=O)N/N=C/c2ccccc2)c1 | inactive
* c1ccc(-c2nc(N3CCOCC3)s[n+]2-c2ccccc2)cc1 | inactive

Could you now consider this next molecule?
Check the results log: what was the call for Cc1nnc(SCC(=O)c2cc(C)n(-c3ccc4c(c3)OCO4)c2C)s1 ?
inactive

* * *

biological target: glucose-6-phosphate dehydrogenase-6-phosphogluconolactonase (Plasmodium falciparum 3D7); experiment: inhibition of P. falciparum G6PD activity – biochemical, end-point NADPH detection, orthogonal assay, dose response (AID 540252); details: purified PfG6PD enzyme, NADPH direct detection
Calls of active or inactive are those of the source. The rule behind the calls is not given here.
Use one of these outcomes when replying: active, inactive

• O=C(CCl)NCCN1C(=O)S/C(=C\c2cccnc2)C1=O = inactive

Check the results log: what was the call for CN(C)c1cccc2c1c(NC(=O)c1ccc(Cl)cc1)nn2C ?
inactive

* * *

biological target: glucose-6-phosphate dehydrogenase-6-phosphogluconolactonase (Plasmodium falciparum 3D7); experiment: inhibition of P. falciparum G6PD activity – biochemical, end-point NADPH detection, orthogonal assay, dose response (AID 540252); conditions: purified PfG6PD enzyme, NADPH direct detection
The source made the active and inactive calls. No rule for the calls is given here.
Use one of these outcomes when replying: active, inactive

* Cc1cc(C)c(S(=O)(=O)/N=C2/C=C(SCC(=O)O)C(=O)c3ccccc32)cc1C | inactive
* C=CCN=c1scc(-c2ccco2)n1/N=C/c1ccc(O)c(O)c1O | inactive
* O=c1[nH]c2ccc(NCc3ccccc3OCc3ccc(Cl)cc3)cc2[nH]1 | inactive
* N#Cc1ccc(N=c2ssnc2Cl)cc1 | active
* C[C@H](NC(N)=O)C(=O)Nc1ccc(N2CCOCC2)c(S(=O)(=O)Nc2ccc(Cl)cc2)c1 | inactive

Could you now consider this next molecule?
Check the results log: what was the call for CCc1ccc(OCC(=O)N/N=C/c2cc([N+](=O)[O-])ccc2N2CCOCC2)cc1 ?
inactive
